Catalogue of compounds with associated MIC
- Tested on: Streptococcus pneumoniae
- protocol-notes: Antibacterial activity against erythromycin-resistant Streptococcus pneumoniae A22072 expressing mef gene by the broth microdilution method
- Type: functional
measurement-kind: MIC (µg/mL)

INSERT INTO results (compound_structure, tested_system, measurement_kind, unit_info, measured_number) VALUES
  ('CC[C@H]1OC(=O)[C@H](C)[C@@H](O[C@H]2C[C@@](C)(OC)[C@@H](OC(=O)NCCNC(=O)c3cc([N+](=O)[O-])cc([N+](=O)[O-])c3)[C@H](C)O2)[C@H](C)[C@@H](O[C@@H]2O[C@H](C)C[C@H](N(C)C)[C@H]2O)[C@](C)(O)C[C@@H](C)CN(C)[C@H](C)[C@H]2OC(=O)O[C@@]21C', 'Streptococcus pneumoniae', 'MIC', 'µg/mL', 0.12),
  ('CC[C@H]1OC(=O)[C@H](C)[C@@H](O[C@H]2C[C@@](C)(OC)[C@@H](OC(=O)NCCCCNC(=O)c3ccc(F)cc3)[C@H](C)O2)[C@H](C)[C@@H](O[C@@H]2O[C@H](C)C[C@H](N(C)C)[C@H]2O)[C@](C)(O)C[C@@H](C)CN(C)[C@H](C)[C@H]2OC(=O)O[C@@]21C', 'Streptococcus pneumoniae', 'MIC', 'µg/mL', 8),
  ('CC[C@H]1OC(=O)[C@H](C)[C@@H](O[C@H]2C[C@@](C)(OC)[C@@H](OC(=O)NCCNC(=O)c3ccc(Cl)cc3)[C@H](C)O2)[C@H](C)[C@@H](O[C@@H]2O[C@H](C)C[C@H](N(C)C)[C@H]2O)[C@](C)(O)C[C@@H](C)CN(C)[C@H](C)[C@H]2OC(=O)O[C@@]21C', 'Streptococcus pneumoniae', 'MIC', 'µg/mL', 1);

====

- Tested on: Streptococcus pneumoniae
- protocol-notes: Antibacterial activity against erythromycin-resistant Streptococcus pneumoniae AB11 expressing erm and mef gene by the broth microdilution method
- Format: functional
measurement-kind: MIC (µg/mL)

INSERT INTO assay_data (compound_structure, tested_system, measured_number) VALUES
  ('CC[C@H]1OC(=O)[C@H](C)[C@@H](O[C@H]2C[C@@](C)(OC)[C@@H](OC(=O)NNC(=O)c3ccc(OC)cc3)[C@H](C)O2)[C@H](C)[C@@H](O[C@@H]2O[C@H](C)C[C@H](N(C)C)[C@H]2O)[C@](C)(O)C[C@@H](C)CN(C)[C@H](C)[C@H]2OC(=O)O[C@@]21C', 'Streptococcus pneumoniae', 64),
  ('CC[C@H]1OC(=O)[C@H](C)[C@@H](O[C@H]2C[C@@](C)(OC)[C@@H](OC(=O)NCCNC(=O)c3ccc(Cl)cc3Cl)[C@H](C)O2)[C@H](C)[C@@H](O[C@@H]2O[C@H](C)C[C@H](N(C)C)[C@H]2O)[C@](C)(O)C[C@@H](C)CN(C)[C@H](C)[C@H]2OC(=O)O[C@@]21C', 'Streptococcus pneumoniae', 64);

====

- Test system: Staphylococcus aureus
- protocol-notes: Antibacterial activity against penicillin-resistant Staphylococcus aureus by the broth microdilution method
- Assay type: functional
measurement-kind: MIC (µg/mL)

INSERT INTO assay_data (compound_structure, tested_system, measured_number) VALUES
  ('CC[C@H]1OC(=O)[C@H](C)[C@@H](O[C@H]2C[C@@](C)(OC)[C@@H](OC(=O)NNC(=O)c3cc([N+](=O)[O-])cc([N+](=O)[O-])c3)[C@H](C)O2)[C@H](C)[C@@H](O[C@@H]2O[C@H](C)C[C@H](N(C)C)[C@H]2O)[C@](C)(O)C[C@@H](C)CN(C)[C@H](C)[C@H]2OC(=O)O[C@@]21C', 'Staphylococcus aureus', 4),
  ('CC[C@H]1OC(=O)[C@H](C)[C@@H](O[C@H]2C[C@@](C)(OC)[C@@H](OC(=O)NCCCCNC(=O)c3ccccc3OC)[C@H](C)O2)[C@H](C)[C@@H](O[C@@H]2O[C@H](C)C[C@H](N(C)C)[C@H]2O)[C@](C)(O)C[C@@H](C)CN(C)[C@H](C)[C@H]2OC(=O)O[C@@]21C', 'Staphylococcus aureus', 32),
  ('CC[C@H]1OC(=O)[C@H](C)[C@@H](O[C@H]2C[C@@](C)(OC)[C@@H](OC(=O)NCCCCNC(=O)c3ccc(Cl)cc3)[C@H](C)O2)[C@H](C)[C@@H](O[C@@H]2O[C@H](C)C[C@H](N(C)C)[C@H]2O)[C@](C)(O)C[C@@H](C)CN(C)[C@H](C)[C@H]2OC(=O)O[C@@]21C', 'Staphylococcus aureus', 64);
